- subject.of.test: Cannabinoid receptor 2 (Homo sapiens)
- Sequence (P34972 whole entry): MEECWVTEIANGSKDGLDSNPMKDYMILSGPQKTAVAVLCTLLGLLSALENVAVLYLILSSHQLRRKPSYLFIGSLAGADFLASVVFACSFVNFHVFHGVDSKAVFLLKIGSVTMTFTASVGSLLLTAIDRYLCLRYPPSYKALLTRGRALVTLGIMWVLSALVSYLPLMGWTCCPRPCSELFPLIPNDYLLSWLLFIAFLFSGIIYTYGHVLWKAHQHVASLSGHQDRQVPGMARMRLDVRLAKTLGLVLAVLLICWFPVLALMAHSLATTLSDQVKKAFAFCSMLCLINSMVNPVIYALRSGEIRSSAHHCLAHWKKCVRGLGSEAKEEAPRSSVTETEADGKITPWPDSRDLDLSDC
- assay.procedure: Inhibition of [35S]GTP-gamma-S binding to human CB2 receptor expressed in CHO cells relative to SR-144528
- Format: functional, cell-based
Decision: Imax >= 80% yields true (1), all other cases yield false (0).

| molecule | subject.of.test | assigned.label |
| --- | --- | --- |
| CCCCCOc1c(OC)ccc2cc(C(=O)NCCc3ccc([N+](=O)[O-])cc3)c(O)nc12 | Cannabinoid receptor 2 (Homo sapiens) | false (0) |
| CCCCCOc1c(OC)ccc2cc(C(=O)NCCc3ccc(Cl)cc3)c(=O)[nH]c12 | Cannabinoid receptor 2 (Homo sapiens) | true (1) |
| CCCCCOc1c(OC)ccc2cc(C(=O)NCc3ccccc3)c(O)nc12 | Cannabinoid receptor 2 (Homo sapiens) | false (0) |
| CCCCCOc1c(OC)ccc2cc(C(=O)NCCc3ccc(N)cc3)c(O)nc12 | Cannabinoid receptor 2 (Homo sapiens) | true (1) |
| Cc1ccc(Cn2nc(C(=O)NC3C4(C)CCC(C4)C3(C)C)cc2-c2ccc(Cl)c(C)c2)cc1 (centres undefined) | Cannabinoid receptor 2 (Homo sapiens) | true (1) |
| CCCCCOc1c(OC)ccc2cc(NC(=O)Cc3ccc4c(c3)OCO4)c(O)nc12 | Cannabinoid receptor 2 (Homo sapiens) | false (0) |
| CCCCCOc1c(OC)ccc2cc(C(=O)NCCc3ccccc3)c(=O)[nH]c12 | Cannabinoid receptor 2 (Homo sapiens) | false (0) |
| CCCCCOc1c(OC)ccc2cc(C(=O)NCCc3ccc(O)cc3)c(O)nc12 | Cannabinoid receptor 2 (Homo sapiens) | true (1) |
| CCCCCOc1c(OC)ccc2cc(C(=O)NCCc3ccc(O)c(O)c3)c(O)nc12 | Cannabinoid receptor 2 (Homo sapiens) | true (1) |
| CCCCCOc1c(OC)ccc2cc(C(=O)NCc3ccc(O)c(O)c3)c(O)nc12 | Cannabinoid receptor 2 (Homo sapiens) | true (1) |

All values here come from ChEMBL document CHEMBL1139010.
